src = paper PMC6429117

# TEST_SYSTEM: dipeptidyl peptidase-4 (DPP-4) (Homo sapiens)
# Construct: recombinant human DPP-4 enzyme
# Sequence (P27487 39-766): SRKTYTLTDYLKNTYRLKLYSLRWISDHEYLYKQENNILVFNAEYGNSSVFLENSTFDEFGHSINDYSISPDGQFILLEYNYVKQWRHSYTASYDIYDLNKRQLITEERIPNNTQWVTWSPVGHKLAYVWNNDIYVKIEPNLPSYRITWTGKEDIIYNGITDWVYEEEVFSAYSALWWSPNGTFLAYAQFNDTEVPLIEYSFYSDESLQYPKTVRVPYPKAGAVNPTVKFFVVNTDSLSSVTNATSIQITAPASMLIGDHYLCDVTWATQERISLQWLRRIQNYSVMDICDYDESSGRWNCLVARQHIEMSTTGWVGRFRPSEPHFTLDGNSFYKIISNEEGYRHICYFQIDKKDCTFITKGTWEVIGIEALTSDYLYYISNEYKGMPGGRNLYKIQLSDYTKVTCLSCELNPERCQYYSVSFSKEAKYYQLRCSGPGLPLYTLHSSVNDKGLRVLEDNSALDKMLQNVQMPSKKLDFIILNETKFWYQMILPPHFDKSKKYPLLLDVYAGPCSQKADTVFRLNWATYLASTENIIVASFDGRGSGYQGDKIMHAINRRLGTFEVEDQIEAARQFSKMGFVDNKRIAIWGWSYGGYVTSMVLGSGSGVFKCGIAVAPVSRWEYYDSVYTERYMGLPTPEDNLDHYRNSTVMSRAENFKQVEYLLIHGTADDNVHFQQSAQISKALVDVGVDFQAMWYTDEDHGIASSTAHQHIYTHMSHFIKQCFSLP
# ASSAY: fluorogenic enzyme inhibition assay (H-Gly-Pro-AMC cleavage, Sigma DPP-4 inhibitor screening kit)
RESULT_TYPE: pIC50
Interpret pIC50 as the negative base-10 log of the concentration measured in mol/L.

Prompt line: Hi! What's the reported pIC50 for O=c1c(O)c(-c2ccccc2)oc2cc(O)cc(O)c12 [Galangin, 3,5,7-trihydroxyflavone] on dipeptidyl peptidase-4 (DPP-4) (Homo sapiens)?
Response line: 4.40
